Source listed as patent US20260138961A1.

# Lookup of reported AC50 keyed by entry
Target: POLγA:G848S (Homo sapiens, UniProt P54098, G848S)
Sequence (P54098 1-1239 G848S): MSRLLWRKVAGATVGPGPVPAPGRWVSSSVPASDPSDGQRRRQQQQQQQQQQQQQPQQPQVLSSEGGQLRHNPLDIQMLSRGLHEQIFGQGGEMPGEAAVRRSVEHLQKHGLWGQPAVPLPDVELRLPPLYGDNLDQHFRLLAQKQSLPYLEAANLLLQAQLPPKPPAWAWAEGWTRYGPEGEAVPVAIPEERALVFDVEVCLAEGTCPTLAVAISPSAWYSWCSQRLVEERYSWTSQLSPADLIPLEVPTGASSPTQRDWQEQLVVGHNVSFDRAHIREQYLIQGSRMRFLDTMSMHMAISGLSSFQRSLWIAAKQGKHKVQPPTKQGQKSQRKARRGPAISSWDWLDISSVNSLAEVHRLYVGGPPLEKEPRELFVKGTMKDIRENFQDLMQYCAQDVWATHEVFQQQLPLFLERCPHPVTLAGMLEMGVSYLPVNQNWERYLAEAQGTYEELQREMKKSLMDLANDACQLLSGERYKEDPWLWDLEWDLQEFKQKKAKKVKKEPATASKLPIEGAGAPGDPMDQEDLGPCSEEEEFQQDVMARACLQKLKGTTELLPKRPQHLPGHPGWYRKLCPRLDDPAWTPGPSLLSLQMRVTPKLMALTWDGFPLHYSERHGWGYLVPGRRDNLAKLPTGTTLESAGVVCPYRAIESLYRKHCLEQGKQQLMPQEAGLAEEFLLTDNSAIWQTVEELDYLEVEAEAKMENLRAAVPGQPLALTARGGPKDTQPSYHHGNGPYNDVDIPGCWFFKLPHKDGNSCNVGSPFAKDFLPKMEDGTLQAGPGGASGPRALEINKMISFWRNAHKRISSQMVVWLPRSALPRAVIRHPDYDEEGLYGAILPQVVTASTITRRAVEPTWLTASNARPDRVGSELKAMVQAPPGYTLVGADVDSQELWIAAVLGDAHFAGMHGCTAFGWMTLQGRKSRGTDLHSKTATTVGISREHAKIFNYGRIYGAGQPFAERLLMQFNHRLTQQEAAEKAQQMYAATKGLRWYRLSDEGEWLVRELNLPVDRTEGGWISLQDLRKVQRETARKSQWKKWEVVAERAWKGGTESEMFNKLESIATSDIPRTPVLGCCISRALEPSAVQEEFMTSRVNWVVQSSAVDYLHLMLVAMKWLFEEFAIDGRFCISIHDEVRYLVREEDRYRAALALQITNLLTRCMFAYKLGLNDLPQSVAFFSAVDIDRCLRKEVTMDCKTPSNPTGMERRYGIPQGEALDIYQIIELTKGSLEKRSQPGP
Sequence (Q9UHN1 1-485 partner): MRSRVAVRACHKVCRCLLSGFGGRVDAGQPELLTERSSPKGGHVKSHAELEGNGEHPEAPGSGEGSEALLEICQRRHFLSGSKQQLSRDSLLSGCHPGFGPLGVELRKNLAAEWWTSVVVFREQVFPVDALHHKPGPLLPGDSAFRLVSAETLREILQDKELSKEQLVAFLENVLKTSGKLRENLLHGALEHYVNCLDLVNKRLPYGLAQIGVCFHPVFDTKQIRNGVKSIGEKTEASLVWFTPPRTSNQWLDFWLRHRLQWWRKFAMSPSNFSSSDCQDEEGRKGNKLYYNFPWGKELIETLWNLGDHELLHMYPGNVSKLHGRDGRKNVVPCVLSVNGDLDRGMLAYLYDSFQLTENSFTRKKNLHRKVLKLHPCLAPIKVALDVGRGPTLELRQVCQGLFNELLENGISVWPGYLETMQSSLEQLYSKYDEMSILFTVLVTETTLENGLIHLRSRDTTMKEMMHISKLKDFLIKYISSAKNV
Assay: DNA polymerization assay, POLγA:G848S mutant
Assay type: biochemical
Details: stimulation of polymerase activity, primed M13mp18 ssDNA, 37° C. 2 hours; read-out: G848S AC50

{"smilesEntry": "Cc1cc(S(=O)(=O)Nc2nc(-c3ccccc3)n(C)n2)c(C)cc1Cl", "AC50": "> 10 µM"}
{"smilesEntry": "O=S(=O)(Nc1csc(-c2ccccc2)n1)c1ccc(F)c(F)c1", "AC50": "> 100 µM"}
{"smilesEntry": "Cc1cc(S(=O)(=O)Nc2cccc3c2CC(=O)N3)c(C)cc1Cl", "AC50": "> 100 µM"}
{"smilesEntry": "Cc1cc(S(=O)(=O)N[C@H]2CCCN(C(=O)c3ccccc3)C2)c(C)cc1Cl", "AC50": "> 100 µM"}
